system: HBL100 (Breast); assay: MTT cytotoxicity assay, HBL100 cells; format: cell-based; conditions: 10 nM, 48 hours
Entries and their Percentage cytotoxicity
quantityKind: Percentage cytotoxicity (%)

substance="D-Phe-Cys-Tyr-D-Trp-Orn-Ac5c-Pen-Thr-NH2 [SEQ ID NO: 3]" uom=% quantitativeresult=17.5
substance="D-Phe-Cys-Tyr-D-Trp-Orn-Deg-Pen-Thr-NH2 [SEQ ID NO: 2]" uom=% quantitativeresult=22.8
substance="D-Phe-Cys-Tyr-D-Trp-Orn-Aib-Pen-Thr-NH2 [SEQ ID NO: 9]" uom=% quantitativeresult=23.9
substance="D-Phe-Cys-Tyr-D-Trp-Lys-Ac5c-Pen-Thr-NH2 [SEQ ID NO: 6]" uom=% quantitativeresult=14.5

Where do these numbers come from? They come from patent EP1198478B1.
